Tested on: U2OS
Assay Explanation: Multiplex assay against U2OS
Format: toxicity, cell-based
Measurement Parameters: human, 12 h, 10 µM, compound concentration 10 uM, replicate 2
Where Population Healthy Nuclei (%) equals or exceeds 70%, the correct label is True; where it does not, the label is False.

Hi team, for CCCOc1ccc2[nH]cc(C3=CCNCC3)c2n1.Cl , is the recorded Population Healthy Nuclei (%) at or above 70%?
True

Hi team, for CN1CCN(c2cc(-c3ccccc3)nc(N)n2)CC1 , is the recorded Population Healthy Nuclei (%) at or above 70%?
True

Hi team, for NCCc1cn(S(=O)(=O)c2c(Cl)nc3sccn23)c2ccccc12.O=C(O)C(=O)O , is the recorded Population Healthy Nuclei (%) at or above 70%?
False

Hi team, for Cl.N=C(N)NC(=O)Cc1c(Cl)cccc1Cl [GUANFACINE HYDROCHLORIDE] , is the recorded Population Healthy Nuclei (%) at or above 70%?
True

Hi team, for CN[C@@H](C)C(=O)N[C@H](C(=O)N1CCC[C@H]1C(=O)Nc1snnc1-c1ccccc1)C1CCCCC1 , is the recorded Population Healthy Nuclei (%) at or above 70%?
False

Hi team, for CC(=O)Nc1cccc2c1c(Sc1ccc(Cl)cc1)c(C)n2CC(=O)O , is the recorded Population Healthy Nuclei (%) at or above 70%?
True

Hi team, for CC(C)(C)c1cc(NC(=O)Nc2ccc(-c3cn4c(n3)sc3cc(OCCN5CCOCC5)ccc34)cc2)no1 , is the recorded Population Healthy Nuclei (%) at or above 70%?
False

Hi team, for CC(C)c1noc(N2CCC(COc3ccc(-c4ccc(S(C)(=O)=O)cc4)nc3)CC2)n1 , is the recorded Population Healthy Nuclei (%) at or above 70%?
True
